Tested on: anti-CR2 SCR1-2 mAb 629
Test: MBP-CR2 SCR1-2-629 mAb ELISA
Format: binding
Conditions: mutant MBP-CR2 SCR1-2 relative to wild-type; plate-bound 629 mAb
assay-endpoint: % 629 mAb Bindng (%)

[
  {
    "molecule": "T86A: single-site mutant of recombinant MBP-CR2 SCR1-2 (protein, left off: large carriers; small tags and cut ends) ISCGSPPPILNGRISYYSTPIAVGTVIRYSCSGTFRLIGEKSLLCITKDKVDGTWDKPAPKCEYFNKYSSCPEPIVPGGYKIRGSAPYRHGDSVTFACKTNFSMNGNKSVWCQANNMWGPTRLPTCVSVFPLE",
    "reported": 85.6
  },
  {
    "molecule": "L10A: single-site mutant of recombinant MBP-CR2 SCR1-2 (protein, left off: large carriers; small tags and cut ends) ISCGSPPPIANGRISYYSTPIAVGTVIRYSCSGTFRLIGEKSLLCITKDKVDGTWDKPAPKCEYFNKYSSCPEPIVPGGYKIRGSTPYRHGDSVTFACKTNFSMNGNKSVWCQANNMWGPTRLPTCVSVFPLE",
    "reported": 113.2
  },
  {
    "molecule": "K67A: single-site mutant of recombinant MBP-CR2 SCR1-2 (protein, left off: large carriers; small tags and cut ends) ISCGSPPPILNGRISYYSTPIAVGTVIRYSCSGTFRLIGEKSLLCITKDKVDGTWDKPAPKCEYFNAYSSCPEPIVPGGYKIRGSTPYRHGDSVTFACKTNFSMNGNKSVWCQANNMWGPTRLPTCVSVFPLE",
    "reported": 107.2
  },
  {
    "molecule": "K50A: single-site mutant of recombinant MBP-CR2 SCR1-2 (protein, left off: large carriers; small tags and cut ends) ISCGSPPPILNGRISYYSTPIAVGTVIRYSCSGTFRLIGEKSLLCITKDAVDGTWDKPAPKCEYFNKYSSCPEPIVPGGYKIRGSTPYRHGDSVTFACKTNFSMNGNKSVWCQANNMWGPTRLPTCVSVFPLE",
    "reported": 87.5
  },
  {
    "molecule": "K41A: single-site mutant of recombinant MBP-CR2 SCR1-2 (protein, left off: large carriers; small tags and cut ends) ISCGSPPPILNGRISYYSTPIAVGTVIRYSCSGTFRLIGEASLLCITKDKVDGTWDKPAPKCEYFNKYSSCPEPIVPGGYKIRGSTPYRHGDSVTFACKTNFSMNGNKSVWCQANNMWGPTRLPTCVSVFPLE",
    "reported": 97.5
  }
]
